# Test system: microfluidic devices seeded with dog liver cells
# assay-procedure: Albumin secretion, microfluidic devices seeded with dog liver cells
# Assay type: cell-based
# experimental-conditions: Canis lupus familiaris, 168 h; dual-cell dog chips, daily administration 1-100 μM, 7 days; read-out: IC50, decrease in albumin secretion
pIC50: −log10 of the molar value.
measured-parameter: pIC50

{"columns": ["compound-structure", "assay-system", "measured-parameter", "recorded-number"],
 "data": [
  ["COc1ccccc1Oc1c(NS(=O)(=O)c2ccc(C(C)(C)C)cc2)nc(-c2ncccn2)nc1OCCO", "microfluidic devices seeded with dog liver cells", "pIC50", 4.52]
]}
